In this section we review reported growth inhibition values for a set of molecules.
Test: NCI Yeast Anticancer Drug Screen. Data for the rad52 strain (AID 147);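 also: 0% = growth of vehicle-treated control cultures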
Details: S. cerevisiae rad52 mutant growth inhibition; at 3.7 µM; stronger effect = higher value
Compounds without any hit were thinned out: in the full panel of roughly 79,000, 15% have a hit. Activity calls are given as the source filed them. Rule as the data show it: active = growth inhibition above about 70%; inactive = the rest.

>  <Molecule>
CC1=NN(C(=O)c2ccccc2O)C(=O)/C1=C/c1ccco1

>  <growth inhibition>
16% (inactive)

$$$$
>  <Molecule>
COc1c2c(c3c(c1CCC(=O)O)OC(C)(C)C=C3)OC(C)(C)C=C2

>  <growth inhibition>
1% (inactive)

$$$$
>  <Molecule>
CC(=O)/C(=C\c1ccc(Cl)c(Cl)c1)C(=O)C(C)CN(C)C (stereo not given)

>  <growth inhibition>
21% (inactive)

$$$$
>  <Molecule>
CC/C(=C(\c1ccccc1)c1ccc(OCC[N+](C)(C)C)cc1)c1ccccc1

>  <growth inhibition>
68% (inactive)

$$$$
>  <Molecule>
Cc1ccnc2c(O)cccc12

>  <growth inhibition>
96% (active)

$$$$

* * *

Assay: NCI Yeast Anticancer Drug Screen. Data for the mec2-1 strain (AID 157)
Conditions: S. cerevisiae mec2-1 strain, at 33.0 µM
Compounds without any hit were thinned out: in the full panel of roughly 79,000, 15% have a hit. Active and inactive are the calls of the source. No stated cut-off is given here; in the data, active means growth inhibition above about 70%; inactive means the rest.
Possible outcomes: active, inactive

>  <Compound>
c1c[nH]c(CN2CCN(Cc3ncc[nH]3)CC2)n1

>  <Discrete label>
active

$$$$
>  <Compound>
C=CCNC1=C2C[C@@H](C)C[C@H](OC)[C@H](O)[C@@H](C)/C=C(\C)[C@H](OC(N)=O)[C@@H](OC)/C=C\C=C(/C)C(=O)NC(=CC1=O)C2=O

>  <Discrete label>
active

$$$$
>  <Compound>
O=P(C(=S)Nc1c(Cl)cccc1Cl)(c1ccccc1)c1ccccc1

>  <Discrete label>
inactive

$$$$
>  <Compound>
ClCCCOc1c(Cl)cc(Cl)cc1Cl

>  <Discrete label>
inactive

$$$$
>  <Compound>
Cc1cc(O)c(C(C)C)cc1SC#N

>  <Discrete label>
inactive

$$$$
>  <Compound>
CC(=O)NC(c1nc2cc(C)c(C)cc2[nH]1)c1nc2cc(C)c(C)cc2[nH]1

>  <Discrete label>
inactive

$$$$
>  <Compound>
COc1ccc(C(C)c2cc3c(cc2OC(C)O)OCO3)cc1 (configuration not stated)

>  <Discrete label>
inactive

$$$$
>  <Compound>
CCCCCCCCCC(=O)N(CCC)CCC

>  <Discrete label>
active

$$$$
>  <Compound>
CC(C)(CN1CCCCC1)C(=O)CC(SCCS(=O)(=O)O)c1ccccc1 (configuration not stated)

>  <Discrete label>
inactive

$$$$
>  <Compound>
CC(CN(C)C)C(=O)/C=C/c1ccc(Cl)c(Cl)c1 (configuration not stated)

>  <Discrete label>
inactive

$$$$
>  <Compound>
Nc1ccc(/C=C/c2ccc3cccnc3c2)cc1

>  <Discrete label>
inactive

$$$$
>  <Compound>
CSC(=S)N/N=C/c1ccccc1

>  <Discrete label>
inactive

$$$$

* * *

Assay: NCI Yeast Anticancer Drug Screen. Data for the mec2-1 strain (AID 157)
Details: S. cerevisiae mec2-1 strain, at 100.0 µM, stronger effect = higher value
Compounds without any hit were thinned out: in the full panel of roughly 79,000, 15% have a hit.
In this section we review reported growth inhibition values for a set of molecules.
Experimental readout: growth inhibition (%)

>  <Molecule>
COc1cc(OC)c(CSCC(NC(=O)OCC2c3ccccc3-c3ccccc32)C(=O)O)c(OC)c1 (stereo not drawn)

>  <Experimental readout>
growth inhibition

>  <Observed value>
98

$$$$
>  <Molecule>
CCCCCCCCCCCCOCCOCCOCC(N)=O

>  <Experimental readout>
growth inhibition

>  <Observed value>
95

$$$$
>  <Molecule>
O=C(/C=C/c1ccsc1)c1cccs1

>  <Experimental readout>
growth inhibition

>  <Observed value>
98

$$$$
>  <Molecule>
CCC(/C=C/c1ccccc1)=N\Nc1ccc(Cl)cc1

>  <Experimental readout>
growth inhibition

>  <Observed value>
52

$$$$
>  <Molecule>
CCCCCCC1OCC(O)C(OCCCC)O1 (stereo not drawn)

>  <Experimental readout>
growth inhibition

>  <Observed value>
-4

$$$$
>  <Molecule>
CCCCN(CCCC)c1ccc(N=Nc2ccc(S(=O)(=O)O)cc2)cc1

>  <Experimental readout>
growth inhibition

>  <Observed value>
97

$$$$
>  <Molecule>
NC(=S)N/N=C1\c2ccccc2CCC1CCC1(O)CCc2ccccc2C1=O (stereo not drawn)

>  <Experimental readout>
growth inhibition

>  <Observed value>
81

$$$$
>  <Molecule>
CC12CCC(CC(=O)/C1=C(/Br)I)C2(C)C (stereo not drawn)

>  <Experimental readout>
growth inhibition

>  <Observed value>
-3

$$$$
>  <Molecule>
O=C(C(Cl)=C(N1CCCCC1)N1CCCCC1)C(Cl)Cl

>  <Experimental readout>
growth inhibition

>  <Observed value>
-2

$$$$
>  <Molecule>
CCN1CCC(O)(c2ccc(Oc3ccc(Cl)cc3)cc2)C(C(=O)c2ccc(Oc3ccc(Cl)cc3)cc2)C1 (stereo not drawn)

>  <Experimental readout>
growth inhibition

>  <Observed value>
8

$$$$
>  <Molecule>
O=C1C(CCSc2ccccc2)C(=O)N(c2ccccc2)C1c1ccccc1 (stereo not drawn)

>  <Experimental readout>
growth inhibition

>  <Observed value>
90

$$$$
>  <Molecule>
O=C1C(=C2CCCC2)CCC1CN1CCCCC1 (stereo not drawn)

>  <Experimental readout>
growth inhibition

>  <Observed value>
96

$$$$
>  <Molecule>
CCC(/C=C/c1ccccc1)=N\Nc1ccc(Cl)c(Cl)c1

>  <Experimental readout>
growth inhibition

>  <Observed value>
92

$$$$
>  <Molecule>
COc1ccccc1/C=C\C(=O)C1COCN1 (stereo not drawn)

>  <Experimental readout>
growth inhibition

>  <Observed value>
99

$$$$
>  <Molecule>
COc1ccc(-c2cc(-c3cc(C)cc(Cl)c3O)nc3[nH]c(=S)[nH]c(=S)c23)cc1

>  <Experimental readout>
growth inhibition

>  <Observed value>
57

$$$$
>  <Molecule>
O=C1C(/C=C/c2ccc(Cl)cc2)=NNC2N1N=C1NC(=O)C3(NN12)c1ccccc1-c1ccccc13 (stereo not drawn)

>  <Experimental readout>
growth inhibition

>  <Observed value>
9

$$$$
>  <Molecule>
O=C(CCCN1CCC(Nc2ccc(F)cc2)(c2nnnn2C2CCCCC2)CC1)c1ccc(F)cc1

>  <Experimental readout>
growth inhibition

>  <Observed value>
99

$$$$
>  <Molecule>
CCN(CC)CCNc1ccc(C)c2sc3ccc(O)cc3c(=O)c12

>  <Experimental readout>
growth inhibition

>  <Observed value>
99

$$$$
>  <Molecule>
CCN(CC)CC(=O)c1ccc2cc(Cl)c3ccccc3c2c1

>  <Experimental readout>
growth inhibition

>  <Observed value>
99

$$$$
>  <Molecule>
CCOc1ccc2nc3ccccc3c(N)c2c1

>  <Experimental readout>
growth inhibition

>  <Observed value>
97

$$$$
>  <Molecule>
CCCCCCCCCCCCCCCCCCNC(=S)/N=C/c1c(O)c2ccccc2[nH]c1=O

>  <Experimental readout>
growth inhibition

>  <Observed value>
-1

$$$$
>  <Molecule>
O=[N+]([O-])c1cc(Cl)ccc1S(=O)(=O)c1ccc(Cl)cc1[N+](=O)[O-]

>  <Experimental readout>
growth inhibition

>  <Observed value>
84

$$$$
>  <Molecule>
CC(C(=O)N1C(=O)N(C(=O)C(C)C(O)c2ccccc2)C2CCCCC21)C(O)c1ccccc1 (stereo not drawn)

>  <Experimental readout>
growth inhibition

>  <Observed value>
24

$$$$
